- Assay info: Pharmacokinetic study, single IV bolus in adult male Sprague Dawley rats
- Type: in vivo
- Test conditions: male, Sprague Dawley, rat, plasma, iv, 10 mg/kg
Readout label: AUC(0-inf) (ng·h/mL)
One number for each entry, in ng·h/mL.

// recorded AUC(0-inf) for `Oc1c(Br)cc(Cl)c2cccnc12` : 4830

###

- Assay info: Pharmacokinetic study, single IV bolus in adult male Sprague Dawley rats
- Format: in vivo
- Test conditions: male, Sprague Dawley, rat, plasma, iv, 10 mg/kg, T1/2β (elimination half-life of the beta elimination phase), 10 mg/kg single IV bolus, male SD rats, n = 4, mean ± SD
Readout label: half-life (h)
One number for each entry, in h.

// recorded half-life for Oc1c(Br)cc(Cl)c2cccnc12 [CLBQ14, 7-bromo-5-chloroquinolin-8-ol] : 13.4

###

- Assay info: Pharmacokinetic study, single IV bolus in adult male Sprague Dawley rats
- Type: in vivo
- Test conditions: male, Sprague Dawley, rat, plasma, iv, 5 mg/kg, T1/2β (elimination half-life of the beta elimination phase), 5 mg/kg single IV bolus, male SD rats, n = 3, mean ± SD
Readout label: half-life (h)
Give bare numbers, in h.

// recorded half-life for `Oc1c(Br)cc(Cl)c2cccnc12` : 10

###

- Assay info: Pharmacokinetic study, single IV bolus in adult male Sprague Dawley rats
- Format: in vivo
- Test conditions: male, Sprague Dawley, rat, plasma, iv, 2 mg/kg, Vss (volume of distribution at steady state), 2 mg/kg single IV bolus, male SD rats, n = 4, mean ± SD
Readout label: Vd (L/kg)
Give bare numbers, in L/kg.

// recorded Vd for `Oc1c(Br)cc(Cl)c2cccnc12` : 24.3

###

- Assay info: Stability of CLBQ14 in rat plasma samples
- Assay type: in vitro ADME, Sprague Dawley rat
- Test conditions: Sprague Dawley, rat, Freeze-thaw cycle stability, mean recovery ± SD
Readout label: recovery at 400 ng/mL (%)
Numbers only, in %.

// recorded recovery at 400 ng/mL for Oc1c(Br)cc(Cl)c2cccnc12 [CLBQ14, 7-bromo-5-chloroquinolin-8-ol] : 95.9

###

- Assay info: Pharmacokinetic study, single IV bolus in adult male Sprague Dawley rats
- Format: in vivo
- Test conditions: male, Sprague Dawley, rat, plasma, iv, 10 mg/kg, Steady state volume of distribution, across the 3 groups (2, 5 and 10 mg/kg IV bolus), male SD rats
Readout label: Vd

// recorded Vd for `Oc1c(Br)cc(Cl)c2cccnc12` : ≤ 25.3 L/kg

###

- Assay info: Pharmacokinetic study, single IV bolus in adult male Sprague Dawley rats
- Type: in vivo
- Test conditions: male, Sprague Dawley, rat, plasma, iv, 5 mg/kg, Cl (total clearance), 5 mg/kg single IV bolus, male SD rats, n = 3, mean ± SD
Readout label: clearance (mL/min/kg)
Numbers only, in mL/min/kg.

// recorded clearance for `Oc1c(Br)cc(Cl)c2cccnc12` : 43.7

###

- Assay info: Stability of CLBQ14 in rat plasma samples
- Assay type: in vitro ADME, Sprague Dawley rat
- Test conditions: Sprague Dawley, rat, Freeze-thaw cycle stability, mean recovery ± SD
Readout label: recovery at 800 ng/mL (%)
Numbers only, in %.

// recorded recovery at 800 ng/mL for Oc1c(Br)cc(Cl)c2cccnc12 [CLBQ14, 7-bromo-5-chloroquinolin-8-ol] : 96.8

###

- Assay info: Stability of CLBQ14 in rat plasma samples
- Assay type: in vitro ADME, Sprague Dawley rat
- Test conditions: Sprague Dawley, rat, Freeze-thaw cycle stability, mean recovery ± SD
Readout label: recovery at 2.5 ng/mL (%)
Give bare numbers, in %.

// recorded recovery at 2.5 ng/mL for `Oc1c(Br)cc(Cl)c2cccnc12` : 104
